Data origin, for the record: PubChem BioAssay (NCI)

# Tested on: ACHN renal
# assayRemarks: NCI tumour cell line growth inhibition, 48 h; in the data active = GI50 below about 0.43 µM; inactive = the rest
// one of active, inactive, no free text

INSERT INTO results (molecule, answerlabel) VALUES
  ('C=C1C(=O)O[C@H]2[C@H]1CC/C(Cn1cc(-c3ccc(OC)cc3)nn1)=C\CC[C@@]1(C)O[C@@H]21', 'active'),
  ('N#CSc1c[nH]c2cccc(/C=C/C(=O)/C=C(/C=C/c3cccc4[nH]cc(SC#N)c34)OB(F)F)c12', 'active'),
  ('Cc1ccc(NC(=O)c2cccc(N(C)C)c2)cc1NC(=O)c1ccc(O)cc1', 'inactive'),
  ('C[C@@H]1OC(O)[C@@H](F)[C@H](O)[C@@H]1O (stereo not given in full)', 'inactive');

# input for lookup
Query: Could you check what this test reported for N#Cc1ccc(O)c(C2=NCC(c3cccc(Oc4ccccc4)c3)O2)c1 (stereo not given) ?
Reply: inactive
